methodNotes: In vivo pharmacokinetics study, mouse
reportedConditions: male, BALB/c nude, plasma, iv, 1.75 mg/kg, IV 1.75 mg/kg, 4 h, individual mice, read-out: Plasma concentration
Method: 4–6 weeks old female BALB/c nude mice were used for most experiments, with the exception of 6–8 weeks old female C57BL/6 mice were used for B16F10 experiments, and 6–8 weeks old male BALB/c nude mice and SD rats were used for pharmacokinetic experiments. […] Mouse body weight and tumor sizes were measured every 3 days. […] Ascitic volume and tumor weight were measured by an electronic balance. […] Concentration of drugs in plasma, lung and tumor tissues were measured for the indicated time. […]
readoutType: concentration at 4 h
Record the result as number plus unit.

I have this compound here, Cc1nnn(C)c1-c1cnc2c3c4cnn(C)c4ccc3n([C@H](c3ccccc3)C3CCOCC3)c2c1 , and I need its recorded concentration at 4 h.
0.19 µg/mL

----------
methodNotes: In vivo pharmacokinetics study, mouse
reportedConditions: male, BALB/c nude, plasma, po, 5 mg/kg, PO 5 mg/kg, 0.25 h, mean of 3 mice, read-out: Plasma concentration, Mean
readoutType: concentration at 0.25 h (ng/mL)
Numbers only, in ng/mL.

I have this compound here, Cc1nnn(C)c1-c1cnc2c3c4cnn(C)c4ccc3n([C@H](c3ccccc3)C3CCOCC3)c2c1 , and I need its recorded concentration at 0.25 h.
266

----------
methodNotes: MTS assay of non-cancerous cells
Format: cell-based, human
reportedConditions: human, HaCAT cells (immortalized keratinocytes), 48h; 16 nM; read-out: Cell viability (Sup Fig.4b)
Procedure: Supplementary Figure 4. […] (a-c) MTS assays of HaCAT cells (immortalized human keratinocytes) treated with the indicated concentration of NHWD-870 for 24h (a), 48h (b) or 72h (c). Data are presented as mean ± SEM of 5 independent experiments. p values were calculated from two-tailed, unpaired t tests. Source data are provided as a Source Data file. 37℃, 5% CO2. […]
readoutType: viability at 48 h, 0.016 µM (%)
Give bare numbers, in %.

I have this molecule here, Cc1nnn(C)c1-c1cnc2c3c4cnn(C)c4ccc3n([C@H](c3ccccc3)C3CCOCC3)c2c1 [NHWD-870] , and I need its recorded viability at 48 h, 0.016 µM.
89.9

----------
methodNotes: In vivo pharmacokinetics study, mouse
reportedConditions: male, BALB/c nude, plasma, iv, 1.75 mg/kg, IV 1.75 mg/kg, 1 h, mean of 3 mice, read-out: Plasma concentration, Mean
readoutType: concentration at 1 h (ng/mL)
One number for each entry, in ng/mL.

I have this compound here, Cc1nnn(C)c1-c1cnc2c3c4cnn(C)c4ccc3n([C@H](c3ccccc3)C3CCOCC3)c2c1 , and I need its recorded concentration at 1 h.
325

----------
methodNotes: In vivo pharmacokinetics study, mouse
reportedConditions: male, BALB/c nude, plasma, po, 5 mg/kg, PO 5 mg/kg
readoutType: half-life (h)
Give bare numbers, in h.

I have this compound here, Cc1nnn(C)c1-c1cnc2c3c4cnn(C)c4ccc3n([C@H](c3ccccc3)C3CCOCC3)c2c1 , and I need its recorded half-life.
1.29

----------
methodNotes: In vivo pharmacokinetics study, rat
Parameters: species or system SD rat
reportedConditions: male, SD, plasma, PO 5 mg/kg
readoutType: MRT inf
Record the result as number plus unit.

I have this compound here, Cc1nnn(C)c1-c1cnc2c3c4cnn(C)c4ccc3n([C@H](c3ccccc3)C3CCOCC3)c2c1 , and I need its recorded MRT inf.
3.28 h
